- TARGET UNDER TEST: T1, human LAG-3 on cells (HEK293-hLAG-3 stable cell line) (human, UniProt P18627 23-525)
- T1 sequence: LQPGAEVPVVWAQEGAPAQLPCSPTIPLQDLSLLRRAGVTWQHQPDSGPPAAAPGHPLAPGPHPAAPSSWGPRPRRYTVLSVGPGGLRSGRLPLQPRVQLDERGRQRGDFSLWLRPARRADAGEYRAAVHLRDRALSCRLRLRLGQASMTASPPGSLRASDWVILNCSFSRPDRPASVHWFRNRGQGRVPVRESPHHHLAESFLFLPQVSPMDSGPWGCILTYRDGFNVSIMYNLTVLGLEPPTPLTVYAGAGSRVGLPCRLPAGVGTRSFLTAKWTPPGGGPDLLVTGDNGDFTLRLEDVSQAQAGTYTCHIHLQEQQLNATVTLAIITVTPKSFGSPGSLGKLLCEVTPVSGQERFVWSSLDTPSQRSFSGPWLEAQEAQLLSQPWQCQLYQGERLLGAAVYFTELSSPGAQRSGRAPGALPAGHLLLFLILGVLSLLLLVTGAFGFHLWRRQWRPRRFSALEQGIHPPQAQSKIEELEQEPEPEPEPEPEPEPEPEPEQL
- TEST PROTOCOL: FACS, HEK293-hLAG-3, antibody 8.000 nM
Provide the reported Mean fluorescence intensity of each item.
Number only, no unit.

stdin: Provide only the value of recorded Mean fluorescence intensity for 409D4E10 mouse-human chimeric antibody (antibody, V domains shown, also called mAb112-409D4E10) VH: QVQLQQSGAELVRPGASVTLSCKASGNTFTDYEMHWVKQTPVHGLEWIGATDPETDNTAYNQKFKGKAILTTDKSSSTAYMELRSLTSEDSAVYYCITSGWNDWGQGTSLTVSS VL: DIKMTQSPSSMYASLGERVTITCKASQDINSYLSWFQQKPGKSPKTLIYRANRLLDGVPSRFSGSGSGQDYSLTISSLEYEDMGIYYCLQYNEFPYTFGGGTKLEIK
stdout: 129

stdin: Recall and state the measured Mean fluorescence intensity for 105F1E10 mouse-human chimeric antibody (antibody, V domains shown, also called mAb009-105F1E10) VH: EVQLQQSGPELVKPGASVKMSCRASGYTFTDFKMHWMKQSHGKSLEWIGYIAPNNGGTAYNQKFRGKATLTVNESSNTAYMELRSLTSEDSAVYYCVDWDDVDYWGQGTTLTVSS VL: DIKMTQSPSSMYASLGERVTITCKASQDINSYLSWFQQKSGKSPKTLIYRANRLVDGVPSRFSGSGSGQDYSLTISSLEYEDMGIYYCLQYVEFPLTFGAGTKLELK .
stdout: 99.4
